Test system: rodent lifetime carcinogenesis bioassay, tumor incidence TD50
Assay: carcinogenic potency in animals, long-term in vivo studies, CPDB compilation (AID 1745844)
Details: rat; strain Sprague-Dawley; females; in feed; site: all sites; lesion: lymphoblastic lymphoma; dosed 46 weeks; study length 75 weeks
observable: TD50

Kindly note the recorded TD50 for "NNc1nc(-c2ccc(N)cc2)cs1" , which is 7.09 mg/kg/day

---

System: rodent lifetime carcinogenesis bioassay, tumor incidence TD50
Assay: carcinogenic potency in animals, long-term in vivo studies, CPDB compilation (AID 1745844)
Settings: rat; strain Wistar; males; in drinking water; site: any site (literature study); lesion: several types; types named in the paper; dosed 157 weeks; study length 157 weeks
observable: TD50 (mg/kg/day)
One number for each entry, in mg/kg/day.

Sure, the documented TD50 for "NN" is 9.64

---

Tested on: rodent lifetime carcinogenesis bioassay, tumor incidence TD50
Assay: carcinogenic potency in animals, long-term in vivo studies, CPDB compilation (AID 1745844)
Details: mouse; strain B6C3F1; males; by gavage; site: liver; lesion: hepatocellular adenoma + hepatocellular carcinoma + neoplastic nodule; dosed 102 weeks; study length 103 weeks
observable: TD50 (mg/kg/day)
Answers are plain numbers, in mg/kg/day.

The reported TD50 of the compound "CC(C)=CCl" was 48.8

---

Tested on: rodent lifetime carcinogenesis bioassay, tumor incidence TD50
Test: carcinogenic potency in animals, long-term in vivo studies, CPDB compilation (AID 1745844)
Settings: mouse; strain Swiss albino; males; in drinking water; site: blood vessels; lesion: several types; types named in the paper; dosed 60 weeks; study length 60 weeks
observable: TD50

TD50 recorded for this molecule, "CCN(N)C=O" , is 3.55 mg/kg/day

---

Tested on: rodent lifetime carcinogenesis bioassay, tumor incidence TD50
Experiment: carcinogenic potency in animals, long-term in vivo studies, CPDB compilation (AID 1745844)
Conditions: mouse; strain Charles River CD1; males; in feed; site: liver; lesion: hepatocellular adenoma; dosed 52 weeks; study length 52 weeks
observable: TD50
Report as: number unit

Record "CCCCOCCOCCOCc1cc2c(cc1CCC)OCO2" , field TD50: 1060 mg/kg/day

---

Test system: rodent lifetime carcinogenesis bioassay, tumor incidence TD50
Test: carcinogenic potency in animals, long-term in vivo studies, CPDB compilation (AID 1745844)
Conditions: rat; strain Fischer 344; females; by gavage; site: kidney; lesion: tubule adenoma; dosed 103 weeks; study length 104 weeks
observable: TD50

What the record says about "C[C@@H]1Cc2c(Cl)cc(C(=O)N[C@@H](Cc3ccccc3)C(=O)O)c(O)c2C(=O)O1" : TD50 is 0.813 mg/kg/day

---

Tested on: rodent lifetime carcinogenesis bioassay, tumor incidence TD50
Assay: carcinogenic potency in animals, long-term in vivo studies, CPDB compilation (AID 1745844)
Conditions: rat; strain Sprague-Dawley; females; in drinking water; site: pancreas; lesion: adenoma; dosed 104 weeks; study length 120 weeks
observable: TD50 (mg/kg/day)
Give bare numbers, in mg/kg/day.

TD50 in this record for "CCO" : 21900

---

System: rodent lifetime carcinogenesis bioassay, tumor incidence TD50
Assay: carcinogenic potency in animals, long-term in vivo studies, CPDB compilation (AID 1745844)
Conditions: rat; strain Charles River CD (Sprague-Dawley); males; inhaled; site: pancreas; lesion: acinar-cell carcinoma; dosed 105 weeks; study length 105 weeks
observable: TD50
Number first, unit second: that is the form wanted.

The compound "FC(F)(F)C(Cl)Cl" , when measured on rodent lifetime carcinogenesis bioassay, tumor incidence TD50, yielded TD50 of 60800 mg/kg/day

---

Test system: rodent lifetime carcinogenesis bioassay, tumor incidence TD50
Assay: carcinogenic potency in animals, long-term in vivo studies, CPDB compilation (AID 1745844)
Conditions: mouse; strain B6C3F1; females; in drinking water; site: liver; lesion: hemangioma; dosed 80 weeks; study length 80 weeks
The source made the active and inactive calls. No rule for the calls is given here.
observable: TD50

Memo: "O=CCBr" , reported TD50: 1020 mg/kg/day (inactive)

---

System: rodent lifetime carcinogenesis bioassay, tumor incidence TD50
Assay: carcinogenic potency in animals, long-term in vivo studies, CPDB compilation (AID 1745844)
Conditions: rat; strain Fischer 344; females; in feed; site: thyroid gland; lesion: follicular-cell adenoma + follicular-cell carcinoma; dosed 77 weeks; study length 106 weeks
observable: TD50

Query "CNC(=S)N(C)C" yields TD50 of 25.8 mg/kg/day

---

Can you tell me TD50 for the items I'm about to list?
Test system: rodent lifetime carcinogenesis bioassay, tumor incidence TD50
Test: carcinogenic potency in animals, long-term in vivo studies, CPDB compilation (AID 1745844)
Details: mouse; strain C3HeB/FeJ; males; in feed; site: any site (literature study); lesion: several types; types named in the paper; dosed 104 weeks; study length 104 weeks
Activity calls are given as the source filed them. How the calls were made is not given here.

As a guide, the following entries are already answered.
INSERT INTO assay_data (smiles_str, target_system, reading) VALUES
  ('CCN(Cc1cccc(S(=O)(=O)O)c1)c1ccc(C(=C2C=CC(=[N+](CC)Cc3cccc(S(=O)(=O)O)c3)C=C2)c2ccc(O)cc2S(=O)(=O)[O-])cc1', 'rodent lifetime carcinogenesis bioassay, tumor incidence TD50', '18100 mg/kg/day (inactive)'),
  ('CCN(Cc1cccc(S(=O)(=O)O)c1)c1ccc(C(=C2C=CC(=[N+](CC)Cc3cccc(S(=O)(=O)[O-])c3)C=C2)c2ccccc2)cc1', 'rodent lifetime carcinogenesis bioassay, tumor incidence TD50', '20800 mg/kg/day (inactive)');

Okay, next one:
GET /value?item= "CCN(Cc1cccc(S(=O)(=O)O)c1)c1ccc(C(=C2C=CC(=[N+](CC)Cc3cccc(S(=O)(=O)[O-])c3)C=C2)c2ccc(S(=O)(=O)O)cc2)cc1" &field=TD50 returns 318000 mg/kg/day

---

System: rodent lifetime carcinogenesis bioassay, tumor incidence TD50
Assay: carcinogenic potency in animals, long-term in vivo studies, CPDB compilation (AID 1745844)
Conditions: mouse; strain B6C3F1; males; in feed; site: all sites; lesion: histiocytic sarcoma + lymphoma malignant, thymic origin; dosed 104 weeks; study length 104 weeks
observable: TD50

// TD50 lookup, molecule = "O=C1OC(c2ccc(O)cc2)(c2ccc(O)cc2)c2ccccc21" , result: 1150 mg/kg/day

---

Tested on: rodent lifetime carcinogenesis bioassay, tumor incidence TD50
Test: carcinogenic potency in animals, long-term in vivo studies, CPDB compilation (AID 1745844)
Details: mouse; strain B6C3F1; females; in feed; site: forestomach + liver + lung; lesion: squamous-cell carcinoma + squamous-cell papilloma + hepatocellular adenoma + hepatocellular carcinoma + alveolar/bronchiolar ade; dosed 104 weeks; study length 104 weeks
observable: TD50 (mg/kg/day)
Answers are plain numbers, in mg/kg/day.

Looking up "Nc1c(Br)cc(Br)c2c1C(=O)c1ccccc1C2=O" , I see its TD50 listed as 546

---

Tested on: rodent lifetime carcinogenesis bioassay, tumor incidence TD50
Assay: carcinogenic potency in animals, long-term in vivo studies, CPDB compilation (AID 1745844)
Conditions: mouse; strain CDF1; females; in feed; site: lung; lesion: adenoma; dosed 82 weeks; study length 82 weeks
observable: TD50 (mg/kg/day)
Numbers only, in mg/kg/day.

For reference, reported TD50 for "Nc1ccc2nc3ccccn3c2n1" stands at 1090

---

Test system: rodent lifetime carcinogenesis bioassay, tumor incidence TD50
Assay: carcinogenic potency in animals, long-term in vivo studies, CPDB compilation (AID 1745844)
Conditions: mouse; strain Swiss albino; females; in drinking water; site: lung; lesion: adenocarcinoma; dosed 95 weeks; study length 95 weeks
observable: TD50
Please state the value followed by its unit.

Memo: "O=S(=O)(O)O" , reported TD50: 146 mg/kg/day

---

System: rodent lifetime carcinogenesis bioassay, tumor incidence TD50
Test: carcinogenic potency in animals, long-term in vivo studies, CPDB compilation (AID 1745844)
Conditions: rat; strain Fischer 344; females; inhaled; site: liver; lesion: hepatocellular adenoma; dosed 113 weeks; study length 113 weeks
observable: TD50 (mg/kg/day)
One number for each entry, in mg/kg/day.

TD50 reading for "CCC(C)=NO" : 804

---

System: rodent lifetime carcinogenesis bioassay, tumor incidence TD50
Assay: carcinogenic potency in animals, long-term in vivo studies, CPDB compilation (AID 1745844)
Details: mouse; strain B6C3F1; males; by gavage; site: any site (literature study); lesion: several types; types named in the paper; dosed 78 weeks; study length 90 weeks
The source made the active and inactive calls. The rule behind the calls is not given here.
observable: TD50

Some solved cases for reference:
INSERT INTO results (smiles_str, observable, reading) VALUES
  ('ClC(Cl)(Cl)C(Cl)(Cl)Cl', 'TD50', '675 mg/kg/day'),
  ('ClC(Cl)=C(Cl)Cl', 'TD50', '160 mg/kg/day'),
  ('CC(Cl)(Cl)Cl', 'TD50', '30500 mg/kg/day');

Record TD50 per entry; entries follow.
1. ClC=C(Cl)Cl
2. O=S1(=O)CC=CC1
3. ClCC(Cl)Cl

Resp:
553 mg/kg/day
631 mg/kg/day (inactive)
79.5 mg/kg/day
